Source listed as paper PMC9181915.

test protocol: MTT cell viability assay in BV2 microglia cells
Type: cell-based
experimental setup: mouse, 3 µM, mean ± SD, n = 3
# key: entry, value: viability at 24 h, 3 µM
Answer with a number only, understood to be in %.

Known results for compounds:
• Cc1ccc(/C=C/C(=O)/C=C/CCc2ccccc2)cc1 = 88.6
• O=C(/C=C/CCc1ccccc1)/C=C/c1ccccc1 = 103

Alright, here's another compound for you.
Input COc1ccc(/C=C/C(=O)/C=C/CCc2ccc(O)cc2)cc1O . Output viability at 24 h, 3 µM: 46.6
